assay_system: Human PI3K beta (Homo sapiens)
Construct: His (N); host or cells: SF9 insect cells (baculovirus)
Sequence (P42338 whole entry): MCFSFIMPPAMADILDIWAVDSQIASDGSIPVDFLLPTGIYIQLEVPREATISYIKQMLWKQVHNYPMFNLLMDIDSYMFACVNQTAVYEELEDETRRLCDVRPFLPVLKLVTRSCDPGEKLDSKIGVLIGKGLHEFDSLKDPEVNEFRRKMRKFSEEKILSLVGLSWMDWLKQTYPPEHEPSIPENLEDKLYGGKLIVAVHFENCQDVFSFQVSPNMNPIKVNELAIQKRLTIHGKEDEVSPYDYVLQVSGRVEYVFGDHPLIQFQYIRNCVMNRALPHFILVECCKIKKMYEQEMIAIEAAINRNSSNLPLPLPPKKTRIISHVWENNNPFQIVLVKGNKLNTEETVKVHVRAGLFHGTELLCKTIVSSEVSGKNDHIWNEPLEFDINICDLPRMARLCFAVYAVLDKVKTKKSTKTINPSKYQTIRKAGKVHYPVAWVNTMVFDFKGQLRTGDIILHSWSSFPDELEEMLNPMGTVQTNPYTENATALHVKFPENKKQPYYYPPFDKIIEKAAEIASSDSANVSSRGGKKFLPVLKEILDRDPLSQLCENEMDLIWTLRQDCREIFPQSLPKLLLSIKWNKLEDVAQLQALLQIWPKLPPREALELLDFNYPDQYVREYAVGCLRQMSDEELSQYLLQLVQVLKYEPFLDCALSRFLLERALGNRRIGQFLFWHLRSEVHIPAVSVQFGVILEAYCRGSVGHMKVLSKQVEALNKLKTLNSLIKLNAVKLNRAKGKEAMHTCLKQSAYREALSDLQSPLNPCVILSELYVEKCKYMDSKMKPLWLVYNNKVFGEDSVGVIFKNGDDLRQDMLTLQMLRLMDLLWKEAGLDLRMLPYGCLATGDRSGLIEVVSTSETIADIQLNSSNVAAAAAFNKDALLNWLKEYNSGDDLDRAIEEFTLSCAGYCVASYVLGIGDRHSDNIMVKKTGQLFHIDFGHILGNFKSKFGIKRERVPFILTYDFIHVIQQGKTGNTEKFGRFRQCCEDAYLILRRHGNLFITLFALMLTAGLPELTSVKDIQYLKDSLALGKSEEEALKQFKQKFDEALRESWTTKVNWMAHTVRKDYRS
Sequence (P27986 whole entry partner): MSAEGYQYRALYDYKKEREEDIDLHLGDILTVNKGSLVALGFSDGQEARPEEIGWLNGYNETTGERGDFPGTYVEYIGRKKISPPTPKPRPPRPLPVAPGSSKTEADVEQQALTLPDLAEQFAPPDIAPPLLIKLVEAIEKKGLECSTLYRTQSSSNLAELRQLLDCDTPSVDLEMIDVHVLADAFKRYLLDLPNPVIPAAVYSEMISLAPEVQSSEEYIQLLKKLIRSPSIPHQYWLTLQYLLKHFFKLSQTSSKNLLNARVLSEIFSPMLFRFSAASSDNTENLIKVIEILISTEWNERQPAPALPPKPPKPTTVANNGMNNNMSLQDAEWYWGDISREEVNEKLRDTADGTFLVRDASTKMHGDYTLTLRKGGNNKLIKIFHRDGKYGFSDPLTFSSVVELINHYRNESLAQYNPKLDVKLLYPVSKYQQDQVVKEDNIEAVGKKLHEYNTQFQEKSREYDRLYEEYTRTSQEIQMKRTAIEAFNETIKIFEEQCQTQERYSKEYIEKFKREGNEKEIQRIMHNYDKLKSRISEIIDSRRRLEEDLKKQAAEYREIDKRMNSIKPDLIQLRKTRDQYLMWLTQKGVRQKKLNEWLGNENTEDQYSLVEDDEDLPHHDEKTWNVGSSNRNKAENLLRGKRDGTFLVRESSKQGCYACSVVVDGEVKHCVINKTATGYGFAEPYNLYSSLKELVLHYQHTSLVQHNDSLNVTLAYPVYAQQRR
assay: Human PI3K beta enzyme assay (HTRF)
Type: biochemical
test_context: concentration not given; b1387 states 1.1 μM for PI3K α and β
Could you please report measured p110 beta Percent Inhibition for the items listed next?
The answer is to be given in %; state only the numeric part.

Inquiry: Requested field: p110 beta Percent Inhibition. Item: N#Cc1c(N2CCOCC2)sc(C(=O)O)c1C(F)c1ccc2ccccc2c1 (centres unmarked) [Compound 364]
Reply text: 109

Inquiry: Returns the measured p110 beta Percent Inhibition for the input compound. Input: CC(=O)Nc1cc(-c2cc(C(c3ccc(Cl)cc3)N3CCC[C@@H]3CO)c(-c3nnc[nH]3)s2)ccn1 (single isomer, unassigned) [Compound 283]
Reply text: 98

Inquiry: Would you kindly share the measured p110 beta Percent Inhibition for CC(=O)Nc1cc(-c2cc(C(c3ccc(Cl)cc3)N3CC(N(C)C)C3)c(-c3nnc[nH]3)s2)ccn1 (centres unmarked) [Compound 181] ?
Reply text: 91

Inquiry: # get_value(readout='p110 beta Percent Inhibition', item= CC(c1ccc(Cl)c(Cl)c1)c1c(C(=O)O)sc(N2CCOCC2)c1C#N (centres unmarked) [Compound 321] )
Reply text: 73

Inquiry: Any idea what p110 beta Percent Inhibition was measured for c1ccc2cc(Cc3nc(N4CCOCC4)sc3-c3nnn[nH]3)ccc2c1 [Compound 360] ?
Reply text: 106
